- target system: T1, VEGFR-3-Fc (human, UniProt P35916 25-328)
- T1 construct: domain: first three Ig domains; used as conditioned supernatant of 293T cells; also called VEGFR-3-Fc fusion protein; not shown: Fc fragment of the pIg vector
- T1 sequence (looked up): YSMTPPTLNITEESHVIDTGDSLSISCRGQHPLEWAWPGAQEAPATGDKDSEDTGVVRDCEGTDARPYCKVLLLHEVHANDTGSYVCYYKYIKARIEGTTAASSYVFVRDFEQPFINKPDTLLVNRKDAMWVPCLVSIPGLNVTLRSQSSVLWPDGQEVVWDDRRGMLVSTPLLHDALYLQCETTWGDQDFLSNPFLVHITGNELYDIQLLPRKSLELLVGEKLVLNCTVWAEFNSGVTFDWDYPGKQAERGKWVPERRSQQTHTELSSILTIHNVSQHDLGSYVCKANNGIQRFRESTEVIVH
- method summary: receptor-Fc IP

[
  {
    "binder": "22-16 (ligand) AHYNTEILKSIDNEWRKTQCMPREVCIDVGKEFGVATNTFFKPPCVSVYRCGGCCNSEGLQCMNTSTSYLSKTLFEITVPLSQGPKPVTISFANHTSCRCMSKLD",
    "binding result": "binds"
  },
  {
    "binder": "12-15 (ligand) GQNHHEVVKFMDVYQRSYCHPIETLVDIFQEFGVATNTFFKPPCVSVYRCGGCCNSEGLQCVPTEESNITMQIMRITVPLSQGPKPVTISFANHTSCRCMSKLD",
    "binding result": "binds"
  },
  {
    "binder": "12-11 (ligand) GQNHHEVVKFMDVYQRSYCHPIETLVDIFQEFGVATNTFFKPPCVSVYRCGGCCNSEGLQCVPTEESNITMQIMRITVPLSQGPKPVTISFLQHNKCECRPKKD",
    "binding result": "binds"
  }
]
